tested on: Bombyx mori EcR (VP16 fusion, CVBE switch construct) (Bombyx mori, UniProt P49881)
Sequence (P49881 86-606): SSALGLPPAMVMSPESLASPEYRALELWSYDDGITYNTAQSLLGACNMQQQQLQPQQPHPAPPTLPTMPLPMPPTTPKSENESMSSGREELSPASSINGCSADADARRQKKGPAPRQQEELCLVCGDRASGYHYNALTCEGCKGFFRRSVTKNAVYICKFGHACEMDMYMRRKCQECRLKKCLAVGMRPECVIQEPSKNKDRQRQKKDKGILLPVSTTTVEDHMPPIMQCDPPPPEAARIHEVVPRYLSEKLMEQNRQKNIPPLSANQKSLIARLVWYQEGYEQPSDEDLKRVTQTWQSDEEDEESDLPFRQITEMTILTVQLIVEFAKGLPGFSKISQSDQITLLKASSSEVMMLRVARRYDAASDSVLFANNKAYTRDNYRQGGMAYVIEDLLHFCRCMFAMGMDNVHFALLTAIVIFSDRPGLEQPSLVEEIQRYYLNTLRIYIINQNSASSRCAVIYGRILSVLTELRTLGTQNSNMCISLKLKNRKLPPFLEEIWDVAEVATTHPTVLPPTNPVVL
Sequence (P19793 whole entry partner, the tested form may be a part): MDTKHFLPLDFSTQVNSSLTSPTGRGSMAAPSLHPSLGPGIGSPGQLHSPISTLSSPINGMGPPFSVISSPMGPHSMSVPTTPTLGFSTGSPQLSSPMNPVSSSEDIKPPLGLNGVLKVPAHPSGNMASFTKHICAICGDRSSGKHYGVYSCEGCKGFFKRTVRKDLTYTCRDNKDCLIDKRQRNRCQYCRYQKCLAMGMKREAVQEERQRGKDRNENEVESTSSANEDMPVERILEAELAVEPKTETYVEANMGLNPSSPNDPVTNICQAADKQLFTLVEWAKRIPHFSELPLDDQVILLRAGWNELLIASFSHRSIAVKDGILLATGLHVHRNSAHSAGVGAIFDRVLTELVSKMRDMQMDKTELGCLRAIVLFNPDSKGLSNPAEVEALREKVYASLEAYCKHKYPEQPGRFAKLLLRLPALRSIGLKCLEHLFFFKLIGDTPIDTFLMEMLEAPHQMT
assay protocol: Z3 Assay (HEK-293 cells with CVBE and 6XEcRE LacZ, β-galactosidase reporter)
assay conditions: read-out: Z3 assay EC50; HEK-293 Z3 cells, β-galactosidase reporter; average of two wells
pEC50: −log10 of the molar value.
Label rule, in plain words: pEC50 of 6 and up is criterion met, under 6 is criterion not met.

// below: answered compounds
>  <compound>
C=Cc1c(OC)cccc1C(=O)NN(C(=O)c1cc(F)c(Cl)cc1Cl)C(C)(C)C

>  <label>
criterion not met

$$$$
>  <compound>
CCc1ccc(C(=O)NN(C(=O)c2ccc(F)cc2)C(C)(C)C)c(F)c1

>  <label>
criterion met

$$$$

Prompt: Say whether COc1cc(C(=O)NN(C(=O)c2cc(C)cc(C)c2)C(C)(C)C)ccc1C shows pEC50 of 6 or more.
Response: criterion not met

Prompt: Could you please find out whether CCc1c(OC)cccc1C(=O)NN(C(=O)c1cc(C)cc(C)c1)C(C)(C)CO has pEC50 that meets 6 or exceeds it?
Response: criterion not met

Prompt: Does COc1cccc(C(=O)NN(C(=O)c2ccc(Cl)cc2F)C(C)(C)C)c1C have a reported pEC50 of at least 6?
Response: criterion met

Prompt: Given the entry Cc1c(C(=O)NN(C(=O)c2cc(F)cc(C(F)(F)F)c2)C(C)(C)C)ccc2c1OCCO2 , answer whether its pEC50 meets or surpasses 6.
Response: criterion met

Prompt: Assess whether reported pEC50 for Cc1cc(C)cc(C(=O)N(NC(=O)c2ccc3c(c2)CCCC3)C(C)(C)C)c1 sits at 6 or higher.
Response: criterion met

Prompt: Confirm if pEC50 reported for the compound COc1cccc(C(=O)NN(C(=O)c2cc(C)cc(C)c2)C(C)(C)C)c1C[S+](C)[O-] (stereo not shown) is 6 or above.
Response: criterion not met
